experimental_protocol: activity coefficient (dimensionless); of the first substance listed, at infinite dilution; xn = mol fraction of the nth substance listed
test_parameters: 328.15 K; Liquid; Chromatography; x1 = 0
metric: activity coefficient

Example entries and their recorded answers appear below.
C1CCCC1 [cyclopentane] + CCn1cc[n+](C)c1.N#C[B-](C#N)(C#N)C#N | 8.8
Cc1ccc(C)cc1 [1,4-dimethylbenzene] + CCn1cc[n+](C)c1.N#C[B-](C#N)(C#N)C#N | 2.48
CCCOCCC [dipropyl ether] + CCn1cc[n+](C)c1.N#C[B-](C#N)(C#N)C#N | 7.79
CCCCCCC [heptane] + CCn1cc[n+](C)c1.N#C[B-](C#N)(C#N)C#N | 39.9
COC(C)(C)C [2-methoxy-2-methylpropane] + CCn1cc[n+](C)c1.N#C[B-](C#N)(C#N)C#N | 2.94
C#CCCCC [1-hexyne] + CCn1cc[n+](C)c1.N#C[B-](C#N)(C#N)C#N | 3.75

(1) CCCCCCCCC [nonane] + CCn1cc[n+](C)c1.N#C[B-](C#N)(C#N)C#N
(2) C=CCCCCCC [oct-1-ene] + CCn1cc[n+](C)c1.N#C[B-](C#N)(C#N)C#N
(3) CO [methanol] + CCn1cc[n+](C)c1.N#C[B-](C#N)(C#N)C#N
Challenge: Please put the entries in order of rising activity coefficient. I'd appreciate it if you listed the labels in the requested order.
Response given: 3, 2, 1
(3: 0.886, 2: 27.8, 1: 90.2)
